- Test system: RARa:RXR (NR concentration 270 nM, RXRa partner concentration 90 nM)
- assayText: PBM binding z-score (relative to random genomic background probes); higher = stronger binding; sequences stand for … in GC…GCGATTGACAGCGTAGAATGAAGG
# reported PBM binding z-score; entries follow
Answer with the value's number alone.

AGAATGAGGTTAAGTTCAGGGAAACAGAATACAT :: 3.03
TAGCCTAGGTCGTTCAGGGGCCAGTATAGAAAGC :: 1.18
ATATGTAGGTTGGGGTCATTCAGAAAGTAGGGAA :: 6.42
CCTAGCAGGCCAATCTAGGTCACTCAAGGCTTGA :: 1.37

We now examine a further sequence.
What value of PBM binding z-score on RARa:RXR (NR concentration 270 nM, RXRa partner concentration 90 nM) does CGTCAAAGATCAAGGTAACGTAACAGAAAGCAGC have? 0.485
